Tested on: K562 cells
Experiment: Cell Titer Glo 2.0 cell viability (toxicity) assay, K562
Settings: 500 cells/well, 72 hours
Measured Endpoint: Effect of Exemplary Compounds on Cell Viability, K562

>>> observed("C[C@@H]1CN(c2ccc3nc(-c4cc5cn(C)nc5c(F)c4O)ncc3c2)C[C@@H](C)N1 [Compound 745]")
"A (A represents <100 nM)"
>>> observed("CNC(=O)c1nc(-c2cc3cn(C)nc3c(C)c2O)nc2ccc(N3CCC(N4CCC4)CC3)cc12 [Compound 706]")
"A (A represents <100 nM)"
>>> observed("Cc1nc2c(F)c(O)c(-c3ccc4nc(N5CC[C@H](NC6CC6)C5)ccc4n3)cc2o1 [Compound 254]")
"A (A represents <100 nM)"

* * *

Tested on: MYB
Assay: HiBiT protein abundance assay, MYB (K562 HiBiT knock-in)
Assay type: cell-based, human
Conditions: HiBiT knock-in K562 cells, 24 hours, top dose 10 μM
Description: Compounds described herein were used to screen for effects on quantitative protein abundance using a HiBit assay system (Promega). Quantitative protein abundance was determined by measuring the protein levels of HiBit-tagged protein targets expressed in cell culture via luminescence using the Nano-Glo HiBiT Lytic Detection System, which uses a split complementation assay format to reconstitute NanoBiT enzyme to generate a luminescent signal. […]
Counter-ions that a name gives are not always drawn.
Parameter IC50: see the listing below.
Measured Endpoint: IC50

>>> observed("C[C@@H]1CN(c2ccc3nc(-c4cc5cn(C)nc5cc4O)ncc3c2)C[C@H](C)N1 [Compound 751, hydrochloride]")
"100 to 1000 nM"
>>> observed("Cn1cc2cc(-c3ccc4nc(N5CCC(NC6(CF)CC6)C5)ccc4n3)c(O)c(F)c2n1 (stereo in doubt) [Compound 357]")
"< 100 nM"
>>> observed("Cc1nc2c(C)c(O)c(-c3ccc4nc(N5CC[C@H](NC6CC6)C5)ccc4n3)cc2o1 [Compound 216]")
"< 100 nM"
>>> observed("Cc1nc2cc(O)c(-c3ccc4nc(N5CC[C@@H](NC6CC6)C5)ccc4n3)cc2o1 [Compound 212]")
"100 to 1000 nM"
>>> observed("COc1cc2ccncc2cc1-c1ccc2nc(N3CCC(NC(C)(C)C)C3)ccc2n1 (stereo not shown) [Compound 161]")
"> 10000 nM"
>>> observed("Cc1nc2cc(O)c(-c3ccc4nc(N5CC[C@@H](NC(C)(C)C)C5)ncc4n3)cc2o1 [Compound 413]")
"< 100 nM"
>>> observed("CNC1CCN(c2cc3c(Cl)cc(-c4cc5cn(C)nc5c(C)c4O)nc3cc2C)C1 (stereo not shown) [Compound 486]")
"100 to 1000 nM"

* * *

Test system: MYB mRNA
Test: RT-qPCR splicing assay, MYB mRNA canonical (CJ) and alternative (AJ) junction
Format: cell-based, human
Details: Homo sapiens, MYB canonical junction mRNA, RT-qPCR; read-out: MYB CJ (decrease in CJ mRNA levels, IC50)
Recorded measurements of IC50, one per entry
Measured Endpoint: IC50

>>> observed("CN1CCC2(CC1)CCN2c1ccc2nc(-c3cc4cn(C)nc4cc3O)ccc2n1")
"> 10000 nM"
>>> observed("CNC(=O)c1nc(-c2cc3cn(C)nc3c(C)c2O)nc2ccc(N3CC[C@@H](NC)C3)cc12")
"< 100 nM"
>>> observed("CN[C@H]1CCN(c2ccc3nc(-c4cc5cn(C)nc5c(C)c4O)ncc3n2)C1 (single isomer, unassigned)")
"100 to 1000 nM"
>>> observed("Cn1cc2cc(-c3ccc4nc(N5CCC6(CCN6)C5)ccc4n3)c(O)cc2n1 (stereo not drawn)")
"100 to 1000 nM"
>>> observed("Cn1cc2cc(-c3ccc4nc(N5CC[C@H](NC6CC6)C5)ccc4n3)c(O)cc2n1")
"100 to 1000 nM"
>>> observed("Cn1cc2cc(-c3ccc4nc([C@@H]5CCNC6(CC6)C5)ccc4n3)c(O)cc2n1 (single isomer, unassigned)")
"< 100 nM"
>>> observed("Cc1nc2c(C)c(O)c(-c3ccc4nc(N5CC[C@H](NC6CC6)C5)ccc4n3)cc2o1")
"< 100 nM"
>>> observed("Cc1nc2c(F)c(O)c(-c3ccc4nc(N5CCC(NC6CCC6)C5)ccc4n3)cc2o1 (stereo not drawn)")
"< 100 nM"
>>> observed("CNC(=O)c1nc(-c2cc(F)c3nc(C)cn3c2)nc2ccc(N3CCNCC3)cc12")
"< 100 nM"
>>> observed("CC(C)N[C@@H]1CCN(c2ccc3nc(-c4cc5cn(C)nc5c(F)c4O)ccc3n2)C1 (single isomer, unassigned)")
"< 100 nM"
>>> observed("Cc1nc2cc(O)c(-c3ccc4nc(N5CC[C@@H](NC6(C)CC6)C5)ccc4n3)cc2o1")
"100 to 1000 nM"
>>> observed("Cn1cc2cc(-c3ccc4nc(N5CCC(N6CCCC6)C5)ccc4n3)c(O)cc2n1 (stereo not drawn)")
"100 to 1000 nM"
>>> observed("Cn1cc2cc(-c3ccc4cc(C5CCNCC5)ccc4n3)c(O)cc2n1")
"< 100 nM"
>>> observed("CN[C@@H]1CCN(c2cc3c(Cl)cc(-c4cc5cn(C)nc5c(C)c4O)nc3cc2C)C1")
"100 to 1000 nM"
>>> observed("Cc1c(O)c(-c2ccc3nc(N4CCC(NCC5CC5)C4)ccc3n2)cc2cn(C)nc12 (stereo not drawn)")
"< 100 nM"
>>> observed("Cc1c(O)c(-c2ncc3nc(N4C[C@@H](C)N[C@@H](C)C4)ccc3n2)cc2cn(C)nc12")
"< 100 nM"
>>> observed("Cc1nc2c(F)c(O)c(-c3ccc4nc(N5CC[C@@H](NCC6CC6)C5)ccc4n3)cc2o1 (single isomer, unassigned)")
"< 100 nM"
>>> observed("CNC(=O)c1nc(-c2cc3cn(C)nc3c(C)c2O)nc2ccc(N3CCC(NC)C3)cc12 (stereo not drawn)")
"< 100 nM"
>>> observed("Cn1cc2cc(-c3ccc4nc(N5CC[C@@H](NC6(CF)CC6)C5)ccc4n3)c(O)cc2n1")
"< 100 nM"
>>> observed("Cc1nc2c(C)c(O)c(-c3ccc4nc(N5CC[C@H](NC6CCC6)C5)ccc4n3)cc2o1")
"< 100 nM"
>>> observed("Cn1cc2cc(-c3ccc4nc(N5CC[C@H](NC6CCC6)C5)ccc4n3)c(O)cc2n1")
"< 100 nM"
>>> observed("Cc1c(O)c(-c2ncc3nc(C4CCNCC4)ccc3n2)cc2cn(C)nc12")
"100 to 1000 nM"
>>> observed("Cc1c(O)c(-c2ccc3nc(N4CC[C@H](NC5CCC5)C4)ccc3n2)cc2cn(C)nc12 (single isomer, unassigned)")
"< 100 nM"
>>> observed("Cc1c(O)c(-c2ccc3nc(N4CCC(NC5CCC5)C4)ccc3n2)cc2cn(C)nc12 (stereo not drawn)")
"< 100 nM"
>>> observed("Cc1nc2c(F)c(O)c(-c3ccc4nc(N5CC[C@@H](NC(C)C)C5)ccc4n3)cc2o1 (single isomer, unassigned)")
"< 100 nM"
>>> observed("Cc1nc2cc(O)c(-c3ccc4nc(N5CC[C@H](NC6(C)CC6)C5)ccc4n3)cc2o1")
"< 100 nM"
>>> observed("CN[C@@H]1CCN(c2ccc3nc(-c4cc5cn(C)nc5cc4O)ccc3n2)C1")
"< 100 nM"
>>> observed("Cn1cc2cc(-c3ccc4nc(N5CC[C@H](NC6(C)CC6)C5)ccc4n3)c(O)c(F)c2n1")
"< 100 nM"
>>> observed("Cc1nc2cc(O)c(-c3ccc4nc(N5CCC(NC(C)(C)C)C5)ccc4n3)cc2n1C (stereo not drawn)")
"100 to 1000 nM"
>>> observed("Cc1nc2c(F)c(O)c(-c3ccc4nc(N5CC[C@H](NC6CCC6)C5)ccc4n3)cc2o1 (single isomer, unassigned)")
"< 100 nM"

* * *

Tested on: MYB mRNA
Assay: RT-qPCR splicing assay, MYB mRNA canonical (CJ) and alternative (AJ) junction
Format: cell-based, human
Details: Homo sapiens, MYB canonical junction mRNA, RT-qPCR; read-out: MYB CJ (decrease in CJ mRNA levels, IC50)
Measured Endpoint: IC50

>>> observed("CC(C)(C)NC1CCN(c2ccc3nc(-c4cc5oc(CO)nc5cc4O)ccc3n2)C1 (stereo not shown)")
"100 to 1000 nM"
>>> observed("Cn1cc2cc(-c3ccc4cc(C5CCNCC5)ccc4n3)c(O)c(F)c2n1")
"< 100 nM"
>>> observed("Cc1c(O)c(-c2nc(C(=O)N(C)C)c3cc(N4CCNCC4)ccc3n2)cc2cn(C)nc12")
"1000 to 10000 nM"
>>> observed("Cc1nc2cc(O)c(-c3ccc4nc(N5CC[C@@H](NC(C)(C)C)C5)ncc4n3)cc2o1")
"< 100 nM"
